Organism: Oryctolagus cuniculus
assay.method.text: Inhibition of trypsin-like activity of 20S proteasome catalytic core from rabbit erythrocytes using Boc-LRR-AMC as substrate at 100 uM preincubated for 15 mins prior to substrate addition measured after 45 mins
Active and inactive are the calls of the source. The rule behind the calls is not given here.
experimental.readout: inhibition

As a guide, the following entries are already answered.
IN: Specify measured inhibition for CC1(C)OC(=O)c2c1ccn(CCc1ccc(O)cc1)c2=O .
OUT: inactive

IN: Give the reported inhibition for this compound. CC1(C)OC(=O)c2c1ccn(CC(O)c1ccccc1)c2=O (stereo unspecified)
OUT: 51.5%

IN: Assign inhibition to the following record: CC1(C)OC(=O)c2c1ccn(CCc1ccc(Cl)cc1)c2=O
OUT: 50%

IN: Input CC1(C)OC(=O)c2c1ccn(CCc1ccc(S(N)(=O)=O)cc1)c2=O , output reported inhibition.
OUT: inactive

IN: Supply measured inhibition of CC1(C)OC(=O)c2c1ccn(Cc1ccncc1)c2=O in your reply.
OUT: inactive

More entries:
IN: Supply inhibition value. Item: CC1(C)OC(=O)c2c1ccn(CC(O)CN1CCCCC1)c2=O (stereo unspecified)
OUT: inactive

IN: For CC1(C)OC(=O)c2c1ccn(CCCN1CCCC1)c2=O , write its inhibition.
OUT: inactive

IN: Provide measured inhibition value, entry: CC1(C)OC(=O)c2c1ccn(CC(O)COc1ccccc1)c2=O (stereo unspecified)
OUT: 33.3%

IN: Give reported inhibition value for COc1ccc(CCn2ccc3c(c2=O)C(=O)OC3(C)C)cc1
OUT: inactive

IN: Check the records and state inhibition for CC1(C)OC(=O)c2c1ccn(CCCn1ccnc1)c2=O
OUT: inactive

IN: State, in one line, measured inhibition of CC1(C)OC(=O)c2c1ccn(CCc1ccc(F)cc1)c2=O
OUT: inactive

IN: Output measured inhibition for this item: CC1(C)OC(=O)c2c1ccn(CCc1ccccc1Cl)c2=O
OUT: 40%

IN: Recall and state the measured inhibition for CC1(C)OC(=O)c2c1ccn(CCc1ccccc1)c2=O .
OUT: 22.6%

###

assay.method.text: Inhibition of trypsin-like activity of 20S proteasome catalytic core from rabbit erythrocytes using Boc-LRR-AMC as substrate preincubated for 15 mins prior to substrate addition measured after 45 mins
Design: species or system Oryctolagus cuniculus
Here the recorded pIC50 is given for each entry.
pIC50 here: minus log base 10 of the concentration, concentration in moles per litre.

IN: Could you please provide reported pIC50 for CCN(CC)CC(O)Cn1ccc2c(c1=O)C(=O)OC2(C)C (configuration not stated) ? Thanks!
OUT: 4.05

As a next step, examine the molecule that follows.
IN: Supply reported pIC50 belonging to this molecule: CC1(C)OC(=O)c2c1ccn(NC(N)=S)c2=O
OUT: 5.00

###

assay.method.text: Inhibition of caspase-like activity of 20S proteasome catalytic core from rabbit erythrocytes using Z-LLE-NA as substrate preincubated for 15 mins prior to substrate addition measured after 45 mins
Parameters: species or system Oryctolagus cuniculus
experimental.readout: log10 of IC50 (log10 of the value in µM)
Please note: log10 values; quantity IC50; unit µM.

IN: Give the reported log10 of IC50 for this molecule. CC1(C)OC(=O)c2c1ccn(CC(O)c1ccccc1)c2=O (configuration not stated)
OUT: 0.72

IN: Read off the recorded log10 of IC50 for CC1(C)OC(=O)c2c1ccn(CCO)c2=O
OUT: 1.08

IN: State, in one line, measured log10 of IC50 of CC1(C)OC(=O)c2c1ccn(Cc1ccncc1)c2=O
OUT: 0.85

###

assay.method.text: Inhibition of chymotrypsin-like activity of 20S proteasome catalytic core from human erythrocytes using Suc-LLVY-AMC as substrate preincubated for 15 mins prior to substrate addition measured after 45 mins
experimental.readout: IC50 (µM)
Express the result in µM but write the number alone.

IN: Give IC50 for the following compound: CC1(C)OC(=O)c2c1ccn(NC(N)=S)c2=O
OUT: 8.4

###

Species on record: Oryctolagus cuniculus
assay.method.text: Inhibition of caspase-like activity of 20S proteasome catalytic core from rabbit erythrocytes using Z-LLE-NA as substrate at 100 uM preincubated for 15 mins prior to substrate addition measured after 45 mins
The source made the active and inactive calls. No cut-off for these calls is given here.
experimental.readout: inhibition

IN: Could you please provide reported inhibition for CN(C)CCn1ccc2c(c1=O)C(=O)OC2(C)C ? Thanks!
OUT: 50%

IN: # return recorded inhibition for entry COc1ccc(CCn2ccc3c(c2=O)C(=O)OC3(C)C)cc1
OUT: inactive

IN: Report measured inhibition; entry is CC1(C)OC(=O)c2c1ccn(CCc1c[nH]c3ccccc13)c2=O
OUT: 23.7%

IN: Quote inhibition reported for CC1(C)OC(=O)c2c1ccn(CCNc1ccc([N+](=O)[O-])cn1)c2=O please.
OUT: 23.4%

IN: Hello, please tell me recorded inhibition for this one: CC1(C)OC(=O)c2c1ccn(CC(O)CN1CCOCC1)c2=O (stereo unspecified)
OUT: inactive

Could you now consider this next compound?
IN: For CC1(C)OC(=O)c2c1ccn(CCc1ccc(O)cc1)c2=O , write its inhibition.
OUT: 21.7%

###

Measured IC50 accompanies every entry in the list below.
assay.method.text: Inhibition of caspase-like activity of 20S proteasome catalytic core from human erythrocytes using Z-LLE-NA as substrate preincubated for 15 mins prior to substrate addition measured after 45 mins

Consider the worked cases shown below.
IN: For the compound CC1(C)OC(=O)c2c1ccn(NC(N)=S)c2=O , give its reported IC50.
OUT: 9.7 µM

IN: Provide measured IC50 value, entry: CC1(C)OC(=O)c2c1ccn(CCc1ccccc1)c2=O
OUT: 45.7 µM

Continuing:
IN: Consider the compound CC1(C)OC(=O)c2c1ccn(Cc1ccncc1)c2=O and give its recorded IC50.
OUT: 7.9 µM

###

assay.method.text: Inhibition of caspase-like activity of 20S proteasome catalytic core from rabbit erythrocytes using Z-LLE-NA as substrate preincubated for 15 mins prior to substrate addition measured after 45 mins
Parameters: species or system Oryctolagus cuniculus
Measured IC50 accompanies every entry in the list below.
Hi! Could you send only the number? It should be in µM, unit omitted.

Known IC50 results, listed for orientation:
IN: Read the entry CC1(C)OC(=O)c2c1ccn(CCCn1ccnc1)c2=O and write its reported IC50.
OUT: 76.8

IN: # return recorded IC50 for entry CC1(C)OC(=O)c2c1ccn(CCc1ccccc1Cl)c2=O
OUT: 4.9

IN: // Input: CC1(C)OC(=O)c2c1ccn(Cc1ccc(Cl)cc1)c2=O . Output its IC50 only.
OUT: 7.1

IN: Give the reported value of IC50 for this record: CC1(C)OC(=O)c2c1ccn(Cc1cccc(C(F)(F)F)c1)c2=O
OUT: 8.4

Further cases:
IN: Query IC50 for CC1(C)OC(=O)c2c1ccn(CC(O)CO)c2=O (stereo unspecified)
OUT: 4.9

IN: Determine from records and report IC50 for CC1(C)OC(=O)c2c1ccn(CCc1ccccc1)c2=O
OUT: 48.7

###

# Lookup of reported pIC50 keyed by entry
assay.method.text: Inhibition of caspase-like activity of 20S proteasome catalytic core from rabbit erythrocytes using Z-LLE-NA as substrate preincubated for 15 mins prior to substrate addition measured after 45 mins
Design: species or system Oryctolagus cuniculus
// pIC50: -log10(molar conc.)

IN: Give pIC50 for CC1(C)OC(=O)c2c1ccn(CCc1ccc(F)cc1)c2=O
OUT: 4.40

IN: For CC1(C)OC(=O)c2c1ccn(CCc1ccc(Cl)cc1)c2=O , write its pIC50.
OUT: 4.70

IN: State, in one line, measured pIC50 of CC1(C)OC(=O)c2c1ccn(CC(O)COc1ccccc1)c2=O (stereo not given)
OUT: 4.40

More entries:
IN: Determine its reported pIC50: CCN(CC)CC(O)Cn1ccc2c(c1=O)C(=O)OC2(C)C (stereo not given)
OUT: 5.21

IN: Find the measured pIC50 of CC1(C)OC(=O)c2c1ccn(CC(O)CN1CCCCC1)c2=O (stereo not given) and report it.
OUT: 5.21

###

Organism: Oryctolagus cuniculus
assay.method.text: Inhibition of trypsin-like activity of 20S proteasome catalytic core from rabbit erythrocytes using Boc-LRR-AMC as substrate at 100 uM preincubated for 15 mins prior to substrate addition measured after 45 mins
Active and inactive are the calls of the source. The rule behind the calls is not given here.
experimental.readout: inhibition

IN: Determine its reported inhibition: C=CCOCC(O)Cn1ccc2c(c1=O)C(=O)OC2(C)C (stereo not drawn)
OUT: inactive

IN: Tell me measured inhibition for CC1(C)OC(=O)c2c1ccn(CC(O)CN1CCOCC1)c2=O (stereo not drawn) please.
OUT: 42.5%

IN: Consider the compound CC1(C)OC(=O)c2c1ccn(CCO)c2=O . State its measured inhibition.
OUT: inactive

###

assay.method.text: Inhibition of caspase-like activity of 20S proteasome catalytic core from rabbit erythrocytes using Z-LLE-NA as substrate preincubated for 15 mins prior to substrate addition measured after 45 mins
Parameters: species or system Oryctolagus cuniculus
pIC50: −log10 of the molar value.
Entry flag: Yes if pIC50 reaches 5; No if it does not.

Here are 4 molecules together with their reported answers.
IN: Has CC1(C)OC(=O)c2c1ccn(CCc1ccc(S(N)(=O)=O)cc1)c2=O a recorded pIC50 greater than or equal to 5?
OUT: Yes

IN: // inclusive: pIC50 at least 5? input: C=CCOCC(O)Cn1ccc2c(c1=O)C(=O)OC2(C)C (centres undefined)
OUT: Yes

IN: pIC50 >= 5 for CC1(C)OC(=O)c2c1ccn(Cc1ccc(Cl)cc1Cl)c2=O ?
OUT: No

IN: Is pIC50 for CC1(C)OC(=O)c2c1ccn(CCCN1CCOCC1)c2=O at or above 5?
OUT: No

In the following, a different molecule is considered.
IN: Does CC1(C)OC(=O)c2c1ccn(CC(O)CN1CCN(Cc3ccccc3)CC1)c2=O (centres undefined) have a reported pIC50 of at least 5?
OUT: No
